All values here come from PubChem BioAssay (NCATS).

Assay Summary: Stat Signaling Pathway (AID 446);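 note: ME-180 cervical cancer cells given 40 pM IL-6 alongside compound; SIE-controlled beta-lactamase reporter measured as 460/530 nm FRET emission ratio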
Condition Context: ME-180 (cervical carcinoma) SIE beta-lactamase reporter, IL-6 stimulated, 5 h; at 7.69 µM (top of the series) unless noted
Inconclusive results are not listed. The source made the active and inactive calls. Calls come from the whole dose curve; as a rule, active = well fitted curve in either direction with a large enough effect (not every such curve was filed as active); inconclusive = small, poorly fitted or top-dose-only effect, or another doubt; inactive = flat fitted curve, though single readings scatter.
Outcome field: choose from label 1 = active, label 0 = inactive

Some entries whose results are on file:
O=c1cnc2cnc(Nc3ccccc3)nc2n1C1CC1    label 0
O=c1cnc2cncnc2n1Cc1ccc(F)cc1    label 0
c1cncc(CNc2ccnc(-c3ccc4c(c3)OCO4)n2)c1    label 0

Q) Identify the outcome logged in this assay for the compound shown: `CN1CCN(c2ncc3nc(-c4cc(F)cc(F)c4)c(=O)n(C)c3n2)CC1`
A) label 0

Q) Look up the recorded call for `Cc1nc2cnc(N(C)C)nc2n(C2CC2)c1=O` in this test.
A) label 0

Q) In this assay, the call recorded for `CN1CCCC2(CCN(C(=O)c3cnccn3)CC2)C1` was what?
A) label 0

Q) Assay result, entry `CN(C)C(=O)c1ccc(-c2ccc3ncnc(N(C)C)c3c2)cc1` — outcome?
A) label 0

Q) Please share the test call associated with `COCC(=O)N1CCC2(CC1)CN(C(=O)Nc1cccc(C#N)c1)C2` .
A) label 0

Q) Which outcome was entered for the compound `COc1ccccc1CNc1ncnc2ccc(-c3ccccc3CN(C)C)cc12` in this test?
A) label 0

Q) Outcome? `CN1CCN(c2cc(-c3ccoc3)ncn2)CC1`
A) label 0
